These entries and their values trace back to ChEMBL document CHEMBL4028801.

- Tested on: ATP-binding cassette sub-family C member 4 (Homo sapiens, UniProt O15439)
- Sequence (O15439 whole entry): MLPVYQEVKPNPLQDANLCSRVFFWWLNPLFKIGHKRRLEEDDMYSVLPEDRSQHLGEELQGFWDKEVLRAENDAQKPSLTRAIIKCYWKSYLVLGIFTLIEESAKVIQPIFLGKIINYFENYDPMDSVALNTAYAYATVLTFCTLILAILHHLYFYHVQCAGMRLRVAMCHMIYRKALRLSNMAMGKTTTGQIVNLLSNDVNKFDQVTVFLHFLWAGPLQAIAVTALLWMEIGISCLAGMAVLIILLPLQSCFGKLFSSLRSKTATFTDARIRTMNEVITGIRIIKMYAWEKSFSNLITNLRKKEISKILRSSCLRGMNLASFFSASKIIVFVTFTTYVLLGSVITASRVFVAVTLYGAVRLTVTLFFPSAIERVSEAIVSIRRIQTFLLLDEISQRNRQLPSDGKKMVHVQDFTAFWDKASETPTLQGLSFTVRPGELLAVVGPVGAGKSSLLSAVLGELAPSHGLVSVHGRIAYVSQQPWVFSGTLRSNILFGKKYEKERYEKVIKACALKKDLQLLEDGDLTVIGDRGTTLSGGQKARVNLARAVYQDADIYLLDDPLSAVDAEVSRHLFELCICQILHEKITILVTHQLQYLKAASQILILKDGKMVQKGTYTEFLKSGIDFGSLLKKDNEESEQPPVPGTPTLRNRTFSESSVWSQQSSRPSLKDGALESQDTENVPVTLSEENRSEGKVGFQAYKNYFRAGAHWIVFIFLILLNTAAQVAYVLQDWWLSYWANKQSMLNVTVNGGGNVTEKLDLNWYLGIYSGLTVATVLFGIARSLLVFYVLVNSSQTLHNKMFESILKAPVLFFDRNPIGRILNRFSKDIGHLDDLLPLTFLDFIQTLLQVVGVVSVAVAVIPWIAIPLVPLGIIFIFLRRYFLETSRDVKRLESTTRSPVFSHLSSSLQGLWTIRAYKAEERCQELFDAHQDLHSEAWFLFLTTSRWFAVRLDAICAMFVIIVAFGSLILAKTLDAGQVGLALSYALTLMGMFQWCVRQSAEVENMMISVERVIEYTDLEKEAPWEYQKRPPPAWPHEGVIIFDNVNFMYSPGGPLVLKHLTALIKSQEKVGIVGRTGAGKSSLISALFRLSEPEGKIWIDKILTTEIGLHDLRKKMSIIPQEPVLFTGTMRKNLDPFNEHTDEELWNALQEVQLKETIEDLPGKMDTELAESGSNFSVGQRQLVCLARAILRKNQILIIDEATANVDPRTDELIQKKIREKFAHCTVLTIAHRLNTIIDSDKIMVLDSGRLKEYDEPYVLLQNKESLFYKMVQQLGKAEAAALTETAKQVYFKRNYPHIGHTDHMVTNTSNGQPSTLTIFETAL
- Experiment: Inhibition of human MRP4 overexpressed in Sf9 cell membrane vesicles assessed as uptake of [3H]-estradiol-17beta-D-glucuronide in presence of ATP and GSH measured after 20 mins by membrane vesicle transport assay
Where a name gives a salt, the structure may show the parent alone.

Compound	IC50
CC(=O)N(CC(O)CO)c1c(I)c(C(=O)NCC(O)CO)c(I)c(C(=O)NCC(O)CO)c1I (configuration not stated) [IOHEXOL]	> 133 µM
CN1C(C(=O)Nc2ccccn2)=C(O)c2sc(Cl)cc2S1(=O)=O	> 133 µM
CCN1CCC[C@H]1CNC(=O)c1cc(S(N)(=O)=O)ccc1OC [LEVOSULPIRIDE]	> 133 µM
C=CCN1CC[C@]23c4c5ccc(O)c4O[C@H]2C(=O)CC[C@@]3(O)[C@H]1C5	> 133 µM
CCOC(=O)[N-]c1cn(N2CCOCC2)n[o+]1	> 133 µM
CC#C[C@]1(O)CC[C@H]2[C@@H]3CCC4=CC(=O)CCC4=C3[C@@H](c3ccc(N(C)C)cc3)C[C@@]21C	> 133 µM
CC1CCN(CCCC(=O)c2ccc(F)cc2)CC1	> 133 µM
CC(C)C[C@H](NC(=O)[C@H](Cc1ccccc1)NC(=O)c1cnccn1)B(O)O	> 133 µM
CO[C@H]1/C=C/O[C@@]2(C)Oc3c(C)c(O)c4c(O)c(c5c(nc6cc(C)ccn65)c4c3C2=O)NC(=O)/C(C)=C\C=C\[C@H](C)[C@H](O)[C@@H](C)[C@@H](O)[C@@H](C)[C@H](OC(C)=O)[C@@H]1C	30.2 µM
C=CC(N)CCC(=O)O (configuration not stated)	> 133 µM
CCN(CC)CCCC(C)Nc1ccnc2cc(Cl)ccc12 (configuration not stated)	104 µM
CC(=O)O[C@H]1C[C@@]2(C)[C@@H](C[C@@H](O)[C@H]3[C@@]4(C)CC[C@@H](O)[C@@H](C)[C@@H]4CC[C@@]32C)/C1=C(\CCC=C(C)C)C(=O)O	> 133 µM
Cc1ccc(O)c([C@H](CCN(C(C)C)C(C)C)c2ccccc2)c1 [TOLTERODINE TARTRATE]	> 133 µM
CS(=O)(=O)c1ccc(C2=C(c3ccccc3)C(=O)OC2)cc1	> 133 µM
O=C(c1ccc(F)cc1)C1CCN(CCn2c(=O)[nH]c3ccccc3c2=O)CC1	> 133 µM
CO[C@H]1/C=C/O[C@@]2(C)Oc3c(C)c(O)c4c(O)c(c(/C=N/N5CCN(C6CCCC6)CC5)c(O)c4c3C2=O)NC(=O)/C(C)=C\C=C\[C@H](C)[C@H](O)[C@@H](C)[C@@H](O)[C@@H](C)[C@H](OC(C)=O)[C@@H]1C	35.9 µM
CC(O)(CS(=O)(=O)c1ccc(F)cc1)C(=O)Nc1ccc(C#N)c(C(F)(F)F)c1 (configuration not stated) [BICALUTAMIDE]	> 133 µM
CC(=O)Nc1ccc(S(=O)(=O)Nc2ccc([N+](=O)[O-])cc2)cc1	> 133 µM
Cc1c(C)c2c(c(C)c1O)CCC(C)(COc1ccc(CC3SC(=O)NC3=O)cc1)O2 (configuration not stated)	61 µM
Cn1cc[nH]c1=S	> 133 µM
CCN(CC)C(=O)c1cccnc1 [NIKETHAMIDE]	> 133 µM
Cc1cc(NC(=O)C2=C(O)c3ccccc3S(=O)(=O)N2C)no1	> 133 µM
